biological target: Dual specificity protein kinase CLK2 (Homo sapiens, UniProt P49760); test: Inhibition of recombinant CLK2 (unknown origin) using Ser/Thr 6 peptide as substrate incubated for 1 hr in presence of ATP by FRET assay
Sequence (P49760 whole entry): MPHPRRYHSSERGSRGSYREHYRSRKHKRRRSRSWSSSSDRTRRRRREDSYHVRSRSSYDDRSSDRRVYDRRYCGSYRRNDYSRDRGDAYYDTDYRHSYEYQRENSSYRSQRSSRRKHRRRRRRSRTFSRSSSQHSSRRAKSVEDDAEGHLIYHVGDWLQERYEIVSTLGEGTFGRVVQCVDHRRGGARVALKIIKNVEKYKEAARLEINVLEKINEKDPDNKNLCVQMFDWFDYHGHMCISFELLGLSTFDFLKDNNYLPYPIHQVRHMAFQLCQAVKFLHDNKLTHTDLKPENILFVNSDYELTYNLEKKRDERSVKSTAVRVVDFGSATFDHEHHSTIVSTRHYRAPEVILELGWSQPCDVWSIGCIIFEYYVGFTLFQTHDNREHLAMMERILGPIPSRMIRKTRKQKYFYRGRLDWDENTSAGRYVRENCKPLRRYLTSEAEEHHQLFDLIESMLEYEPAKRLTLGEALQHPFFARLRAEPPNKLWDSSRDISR
Sorting guide: entries reporting EC50 beneath 3 nM go in the Yes pile, the rest go in the No pile.

Check if EC50 falls below 3 nM for O=C(Nc1cc2cc(-c3cnco3)cnc2cn1)C1CCNCC1 .
No

Likewise for CN1CCC(C(=O)Nc2cc3cc(-c4cnsc4)cnc3cn2)CC1 ?
No

Same read-out for CN1CCN(c2nccc3[nH]c(-c4n[nH]c5ncc(-c6cncc(CN7CCCCC7)c6)cc45)cc23)CC1 ?
No

Lookup CN(C)Cc1cncc(-c2cnc3[nH]nc(-c4cc5c(-c6cccc(F)c6)nccc5[nH]4)c3c2)c1
No

Next: CN1CCCCN(C)c2nccc3[nH]c(nc23)-c2c[nH]c3ccc(cc23)-c2cncc(c2)C1
Yes

Can you check Cc1n[nH]c2ccc(-c3cncc(N[C@H]4CCNC[C@@H]4F)n3)cc12 next?
Yes

Would you kindly repeat that for Cc1n[nH]c2ccc(-c3cncc(O[C@H]4CCNC[C@@H]4F)n3)cc12 ?
Yes
